- measured-target: 3',5'-cyclic-AMP phosphodiesterase 4B (Homo sapiens)
- method-summary: qHTS Assay for Inhibitors of PDE-IV (AID 607)
- study-conditions: HEK293 ACTOne CNG channel cells, membrane potential fluorescence; series mostly up to 22.9 µM
Records with an inconclusive call do not appear. Activity calls are given as the source filed them. Calls follow the shape of the dose curve; as a rule, active = well fitted activation curve with a large enough effect in the main read-out, with a control signal flat (not every such curve was filed as active); inconclusive = small, poorly fitted or top-dose-only effect, or effect the other way, or a change in a side signal; inactive = flat fitted curve, though single readings scatter.
Entry note: the call must match one of active, inactive

| compound | classification |
| --- | --- |
| NCCC[C@@H](CC(=O)N[C@@H]1CCNC[C@H]1C(=O)N[C@H](CC(=O)N[C@@H](CCC(=O)O)CC(=O)O)Cc1ccccc1)NC(=O)C[C@H](CO)NC(=O)[C@@H]1CCCC[C@H]1N | inactive |
| C=C1C(=O)O[C@H]2C[C@@]3(C)CCCC(=C)[C@@H]3C[C@H]12 | active |
| Clc1ccc(C(c2ccc(Cl)cc2)n2cc[n+](C[C@@H](OCc3ccc(Cl)cc3Cl)c3ccc(Cl)cc3Cl)c2)cc1 | inactive |
| Cc1nn(C)c(Cl)c1S(=O)(=O)N[C@@H](c1ccccc1)[C@]1(C)C[C@H]1[C@@H](C)C(=O)Nc1ccc2ccccc2c1 | inactive |
| CC(=O)[C@@]1(O)CC[C@@H]2[C@@H]3CCC4=CC(=O)CC[C@@]4(C)[C@H]3CC[C@]21C | inactive |
| COC(=O)[C@@]1(Cc2ccc(F)cc2)[C@H]2c3cc(C(=O)N4CCCC4)n(CCN4CNCC4=O)c3C[C@H]2CN1C(=O)c1ccccc1 | inactive |

Recorded test call requested for COC(=O)N[C@H](c1ccccc1)[C@@]1(C)C[C@@H]1[C@@H](C)C(=O)Nc1ccc2ccccc2c1
inactive

Tell me the recorded outcome of this test for CCCCC#Cc1nc(N)c2ncn([C@@H]3O[C@@H](C(=O)NCC)[C@H](O)[C@@H]3O)c2n1 .
inactive

Test call, this compound: CC(C)C[C@@H](CC(=O)N[C@@H](CCC(=O)O)CC(=O)O)NC(=O)[C@@H]1CCCC[C@H]1NC(=O)C[C@H](CCCN)NC(=O)C[C@H](CO)NC(=O)[C@@H]1CNCC[C@H]1N
inactive

Given O=c1cc(-c2ccccc2O)oc2c1ccc1ccccc12 , state the outcome it received in this test.
inactive

I would be grateful if you could indicate the recorded call for C[C@@H](C(=O)Nc1ccc2ccccc2c1)[C@H]1C[C@]1(C)[C@H](NP(=O)(c1ccccc1)c1ccccc1)c1ccccc1 .
inactive

# outcome recorded in this test, key = C[N+](C)(C)CCN[N@@+]1(C)CCCc2ccccc21
inactive

// return assay outcome for CCC/C=C(\CCC)C(NS(=O)(=O)c1ccc(C(F)(F)F)cc1)c1ccc(-c2ccccc2)cc1 (stereo not given)
inactive

Look up the recorded call for CC(C)C[C@@H](CC(=O)N[C@@H](CCC(=O)O)CC(=O)O)NC(=O)[C@@H]1CCCC[C@H]1NC(=O)C[C@@H](NC(=O)C[C@H](Cc1ccccc1)NC(=O)[C@@H]1CCCC[C@H]1N)C(C)C in this test.
inactive

Hi team, can someone confirm the assay call for Cn1c(=O)c2c(nc(/C=C\c3cccc(Cl)c3)n2C)n(C)c1=O ?
inactive
